# Target entity: T1, human IL-17A (human, UniProt Q16552 24-155)
# T1 construct: secreted form (GenBank U32659) expressed in Hek293 with C-terminal 6-His; also called hIL-17A; IL-17A-6HIS
# T1 sequence (Q16552 other isoform, or with tags, fused parts or gaps): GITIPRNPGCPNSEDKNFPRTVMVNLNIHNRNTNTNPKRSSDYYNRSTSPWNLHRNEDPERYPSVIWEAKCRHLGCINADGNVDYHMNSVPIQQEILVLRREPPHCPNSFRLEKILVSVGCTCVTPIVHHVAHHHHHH
# Protocol description: SPR
Assay metric: koff

These solved cases illustrate the format of a correct answer.
Binder	koff
IL17MS3010 (VHH, name in Kabat numbering, also called IL17MS3010 basic) VHH: EVQLVESGGGLVQPGGSQRLSCTASGTIVNIHVMGWYRQAPGKQRELVALIFSGGSADYADSVKGRFTISRDNSKNTVYLQMNSLRAEDTAVYYCAAEIGYYSGGTYYSSEAHWGQGTLVTVSS	0.00013 s⁻¹
IL17MS3013 (VHH, name in Kabat numbering, basic + A84P; Kabat positions) VHH: EVQLVESGGGLVQPGGSQRLSCTASGTIVNIHVMGWYRQAPGKQRELVALIFSGGSADYADSVKGRFTISRDNSKNTVYLQMNSLRPEDTAVYYCAAEIGYYSGGTYYSSEAHWGQGTLVTVSS	0.000116 s⁻¹
IL17MS3011 (VHH, name in Kabat numbering, basic + Q18L; Kabat positions) VHH: EVQLVESGGGLVQPGGSLRLSCTASGTIVNIHVMGWYRQAPGKQRELVALIFSGGSADYADSVKGRFTISRDNSKNTVYLQMNSLRAEDTAVYYCAAEIGYYSGGTYYSSEAHWGQGTLVTVSS	0.000132 s⁻¹
IL17MS3012 (VHH, name in Kabat numbering, basic + T23A; Kabat positions) VHH: EVQLVESGGGLVQPGGSQRLSCAASGTIVNIHVMGWYRQAPGKQRELVALIFSGGSADYADSVKGRFTISRDNSKNTVYLQMNSLRAEDTAVYYCAAEIGYYSGGTYYSSEAHWGQGTLVTVSS	0.000137 s⁻¹

Query: Using the record for IL17MS3017 (VHH, name in Kabat numbering, basic + Q18L, T23A, A84P; Kabat positions) VHH: EVQLVESGGGLVQPGGSLRLSCAASGTIVNIHVMGWYRQAPGKQRELVALIFSGGSADYADSVKGRFTISRDNSKNTVYLQMNSLRPEDTAVYYCAAEIGYYSGGTYYSSEAHWGQGTLVTVSS , report its koff.
Response: 0.000144 s⁻¹
